System: pyruvate kinase (Bacillus stearothermophilus)
method_description: Pyruvate Kinase; further: potency means the concentration at half of the fitted maximal effect
condition_set: purified pyruvate kinase, luminescence ATP production; ribose 5-phosphate activator present at AC10
The whole screen tested about 51,000 compounds, of which about 600 (1.2%) were called active. Roughly 2% stayed inconclusive and do not appear here. No stated cut-off is given here; in the data, active means potency below about 11 µM; inconclusive means mostly about 12 µM to 25 µM; inactive means weaker than that;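 the screen sought inhibitors and activators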. The sample as a whole holds a higher share of actives than the screen did.
Classes used: yes for active, no for inactive

[[record]]
molecule = "C=CCN(CC=C)C(=O)CN1C(=O)c2ccccc2C1=O"
subject_of_test = "pyruvate kinase (Bacillus stearothermophilus)"
qualitative_label = "no"

[[record]]
molecule = "O=C(c1cccs1)N1CCC(c2nc3ccccc3s2)CC1"
subject_of_test = "pyruvate kinase (Bacillus stearothermophilus)"
qualitative_label = "no"

[[record]]
molecule = "Fc1ccc2[nH]c3c(N4CCN(Cc5ccc6c(c5)OCO6)CC4)ncnc3c2c1"
subject_of_test = "pyruvate kinase (Bacillus stearothermophilus)"
qualitative_label = "no"

[[record]]
molecule = "Cc1cc(NC(=O)CSc2nnc(-c3ccc(Cl)s3)o2)no1"
subject_of_test = "pyruvate kinase (Bacillus stearothermophilus)"
qualitative_label = "no"

[[record]]
molecule = "Cc1cc(C(=O)COC(=O)CCCN2C(=O)c3ccccc3C2=O)c(C)n1C"
subject_of_test = "pyruvate kinase (Bacillus stearothermophilus)"
qualitative_label = "no"

[[record]]
molecule = "CCOC(=O)c1cc2c(n(-c3ccc(C)cc3)c1=O)CCCC2=O"
subject_of_test = "pyruvate kinase (Bacillus stearothermophilus)"
qualitative_label = "no"

[[record]]
molecule = "CNC(=O)CSc1nnc(CCc2ccccc2)n1-c1ccccc1"
subject_of_test = "pyruvate kinase (Bacillus stearothermophilus)"
qualitative_label = "no"

[[record]]
molecule = "CCC(C)NC(=O)N[C@@H](CCSC)C(=O)O (stereo partly specified)"
subject_of_test = "pyruvate kinase (Bacillus stearothermophilus)"
qualitative_label = "no"

[[record]]
molecule = "CCCCC(=O)N(c1ccc(OC)cc1)C1C=CS(=O)(=O)C1 (stereo unspecified)"
subject_of_test = "pyruvate kinase (Bacillus stearothermophilus)"
qualitative_label = "no"

[[record]]
molecule = "COc1cc(OC)cc(C(=O)Nc2ccc(-c3nc4ccccc4o3)c(O)c2)c1"
subject_of_test = "pyruvate kinase (Bacillus stearothermophilus)"
qualitative_label = "no"

[[record]]
molecule = "CC(C)OC(=O)c1cc(NC(=O)C2C3CCC(O3)C2C(=O)O)cc(C(=O)OC(C)C)c1 (stereo unspecified)"
subject_of_test = "pyruvate kinase (Bacillus stearothermophilus)"
qualitative_label = "yes"

